target: T1, HLA-A*02:01 (human); assay: UV-ligand exchange ELISA (anti-β2m), peptide exchange yield grade
T1 construct: MHC class I monomer made peptide-receptive by UV cleavage of a UV-sensitive ligand; also called peptide-receptive MHC molecules
Parameter peptide exchange yield: see the listing below.

Some entries whose results are on file:
BINDER	REPORTED_METRIC	RESULT
ALIKQLFEA (also called ZNF-002) [peptide ALIKQLFEA (SEQ ID NO: 1)]	peptide exchange yield	50 to 75%
SLESKLTSV [peptide SLESKLTSV (SEQ ID NO: 44)]	peptide exchange yield	50 to 75%
WIDDTSAFV [peptide WIDDTSAFV (SEQ ID NO: 92)]	peptide exchange yield	50 to 75%
KLGQVLIYL [peptide KLGQVLIYL (SEQ ID NO: 112)]	peptide exchange yield	20 to 50%
KMSEKILLL [peptide KMSEKILLL (SEQ ID NO: 186)]	peptide exchange yield	50 to 75%

Looking up QLTEIKPLL [peptide QLTEIKPLL (SEQ ID NO: 137)] , I see its peptide exchange yield listed as 50 to 75%

Looking up KLLEFDQLQL [peptide KLLEFDQLQL (SEQ ID NO: 160)] , I see its peptide exchange yield listed as 50 to 75%

Looking up YLFREPATI [peptide YLFREPATI (SEQ ID NO: 178)] , I see its peptide exchange yield listed as 20 to 50%
